Molecular target: maltase-glucoamylase (Sus scrofa)
Assay: Inhibitory activity against porcine maltase
Would you mind telling me the reported pIC50 of each entry?
The scale used: pIC50 is minus the common logarithm of the concentration in molar units.

**Query** So what does the record say about pIC50 for `OC[C@@]1(O)C[C@H](NCC2CCCCC2)[C@H](O)[C@@H](O)[C@@H]1O` ?
**Result** 6.62

**Query** Entry `CC(C)=CCC/C(C)=C/CN[C@H]1C[C@](O)(CO)[C@@H](O)[C@H](O)[C@H]1O` please
**Result** 6.28

**Query** Entry `OCC1=C[C@H](NC(CO)CO)[C@H](O)[C@@H](O)[C@@H]1O` please
**Result** 5.23

----------
Molecular target: sucrase-isomaltase (Sus scrofa)
Test: Alpha-D-glucosidase inhibitory activity and enzyme inhibition in vitro against porcine sucrase
Would you mind telling me the reported IC50 of each entry?
Param answer (str): number followed by unit.

**Query** State its IC50 on sucrase-isomaltase (Sus scrofa): `N[C@H]1C[C@](O)(CO)[C@@H](O)[C@H](O)[C@H]1O`
**Result** 49 nM

**Query** Entry `OC[C@@]1(O)C[C@H](NC[C@@H](O)c2ccccc2)[C@H](O)[C@H](O)[C@H]1O` please
**Result** 190 nM

**Query** Entry `OC[C@@]1(O)C[C@H](NCc2ccc(Br)cc2)[C@H](O)[C@@H](O)[C@@H]1O` please
**Result** 15 nM

**Query** Entry `OCC1=C[C@H](NC(CO)CO)[C@H](O)[C@@H](O)[C@@H]1O` please
**Result** 180 nM

**Query** Entry `OC[C@@]1(O)C[C@H](NC2CCCCC2)[C@H](O)[C@@H](O)[C@@H]1O` please
**Result** 15 nM

**Query** Entry `CC(C)(C)c1cc(CN[C@H]2C[C@](O)(CO)[C@@H](O)[C@H](O)[C@H]2O)cc(C(C)(C)C)c1O` please
**Result** 6.8 nM

**Query** Entry `CC(C)=CCC/C(C)=C/CN[C@H]1C[C@](O)(CO)[C@@H](O)[C@H](O)[C@H]1O` please
**Result** 11 nM

**Query** Entry `OC[C@@]1(O)C[C@H](NCCc2ccccc2)[C@H](O)[C@@H](O)[C@@H]1O` please
**Result** 2.3 nM

**Query** Entry `CO[C@H]1O[C@H](CO)[C@@H](N[C@H]2C[C@](O)(CO)[C@@H](O)[C@H](O)[C@H]2O)[C@H](O)[C@H]1O` please
**Result** 80 nM

**Query** Entry `OC[C@@]1(O)C[C@H](NCC2CCCCC2)[C@H](O)[C@@H](O)[C@@H]1O` please
**Result** 9.3 nM

**Query** Entry `CO[C@H]1O[C@H](CO)[C@H](N[C@H]2C[C@](O)(CO)[C@@H](O)[C@H](O)[C@H]2O)[C@H](O)[C@H]1O` please
**Result** 230 nM

----------
Molecular target: maltase-glucoamylase (Sus scrofa)
Assay: Inhibitory activity against porcine maltase
METRIC: IC50 (nM)
Numbers only; they are read as nM.

**Query** So what does the record say about IC50 for `OC[C@@]1(O)C[C@H](NC2CCCCC2)[C@H](O)[C@@H](O)[C@@H]1O` ?
**Result** 410

**Query** Entry `OC[C@@]1(O)C[C@H](NCCc2ccccc2)[C@H](O)[C@@H](O)[C@@H]1O` please
**Result** 100

**Query** Entry `CO[C@H]1O[C@H](CO)[C@@H](N[C@H]2C[C@](O)(CO)[C@@H](O)[C@H](O)[C@H]2O)[C@H](O)[C@H]1O` please
**Result** 72

**Query** Entry `CC(C)(C)c1cc(CN[C@H]2C[C@](O)(CO)[C@@H](O)[C@H](O)[C@H]2O)cc(C(C)(C)C)c1O` please
**Result** 43

**Query** Entry `OC[C@@]1(O)C[C@H](NCc2ccc(Br)cc2)[C@H](O)[C@@H](O)[C@@H]1O` please
**Result** 230

**Query** Entry `CO[C@H]1O[C@H](CO)[C@H](N[C@H]2C[C@](O)(CO)[C@@H](O)[C@H](O)[C@H]2O)[C@H](O)[C@H]1O` please
**Result** 100

**Query** Entry `N[C@H]1C[C@](O)(CO)[C@@H](O)[C@H](O)[C@H]1O` please
**Result** 2200

**Query** Entry `OC[C@@]1(O)C[C@H](NC[C@H](O)c2ccccc2)[C@H](O)[C@H](O)[C@H]1O` please
**Result** 5.8

Just for reference, BindingDB's records for doi:10.1021/jm00156a023 is where these values come from.
